Reported EC50 values follow for various compounds
- test_description: inhibitors of intracellular T. cruzi replication, confirmation, NIH3T3 host cells, beta-gal luminescence (AID 2044);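 also: intracellular parasites grown in NIH/3T3 mouse fibroblasts as host cells; luminescent beta-galactosidase reporter signal from transgenic T. cruzi replicating inside host cells; inhibitors lower the luminescence signal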
- Assay type: functional, cell-based
Active and inactive are the calls of the source.
property_measured: EC50

compound: C=CCN(CC=C)C(=S)NC(=O)c1ccc(-c2ccccc2)cc1
measured_value: 1820 nM (active)
//
compound: N#C/C(=C\C1=C(N2CCOCC2)C(=C\c2ccccc2)/CC1)C(=O)Nc1ccccc1F
measured_value: 1010 nM (active)
//
compound: C[n+]1c2n(c3ccccc31)N=C(c1ccc(-c3ccccc3)cc1)CS2
measured_value: 376 nM (active)
//
compound: CC(C)CN(C(=O)COC(=O)c1ccc([N+](=O)[O-])s1)c1c(N)n(Cc2ccccc2)c(=O)[nH]c1=O
measured_value: 1060 nM (active)
//
compound: Cc1nn(C(C)C)c(C)c1CN1CCCC(CCC(=O)NCc2ccccc2F)C1 (configuration not stated)
measured_value: < 100 nM (active)
//
compound: O=C(Nc1ccccc1F)c1ccc([N+](=O)[O-])s1
measured_value: 614 nM (active)
//
compound: O=C(/C=C/c1ccccc1)NC(NC(=S)Nc1cc(Cl)ccc1Cl)C(Cl)(Cl)Cl (configuration not stated)
measured_value: 1730 nM (active)
//
compound: O=C(N/N=C/c1ccc[nH]1)c1sc2ccccc2c1Cl
measured_value: 2300 nM (active)
//
compound: Cc1ccc(NC(=S)N/N=C/c2ccc([N+](=O)[O-])s2)cc1
measured_value: 1340 nM (active)
//
compound: Cn1c(SCC(=O)N/N=C/c2ccc([N+](=O)[O-])s2)nnc1-c1ccccc1
measured_value: 634 nM (active)
//
compound: CCCCc1ccc(NC(S)=NCc2cccs2)cc1
measured_value: 2600 nM (active)
//
compound: C/C(Cl)=C\Cn1c(O)c(/N=N/C(=N)S)c2ccccc21
measured_value: 1200 nM (active)

---

- target: Heat shock factor protein 1 (Mus musculus)
- Sequence (P38532 whole entry): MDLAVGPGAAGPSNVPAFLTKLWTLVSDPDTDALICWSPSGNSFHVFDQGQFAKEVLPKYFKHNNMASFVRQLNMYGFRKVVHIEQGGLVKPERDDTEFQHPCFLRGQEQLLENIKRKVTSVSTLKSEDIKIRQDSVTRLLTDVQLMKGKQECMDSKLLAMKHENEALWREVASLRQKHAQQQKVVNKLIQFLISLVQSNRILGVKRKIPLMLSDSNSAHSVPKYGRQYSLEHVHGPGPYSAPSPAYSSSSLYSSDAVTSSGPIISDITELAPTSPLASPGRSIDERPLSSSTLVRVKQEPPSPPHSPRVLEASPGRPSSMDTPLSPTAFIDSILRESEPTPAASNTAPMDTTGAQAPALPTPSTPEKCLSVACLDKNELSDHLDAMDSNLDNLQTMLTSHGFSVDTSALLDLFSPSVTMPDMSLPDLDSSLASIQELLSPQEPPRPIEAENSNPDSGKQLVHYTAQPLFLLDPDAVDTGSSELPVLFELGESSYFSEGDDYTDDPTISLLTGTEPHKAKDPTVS
- test_description: inhibition of MG132-induced HSE-luciferase signal, confirmation, cell-based, NIH3T3, luminescence, dose retest (AID 2382);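 also: NIH3T3 fibroblasts with HSF1-driven luciferase reporter stressed by proteasome inhibitor MG132; luminescence from HSF1-driven luciferase expression after 8 hours of MG132 stress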
- Assay type: functional
Active and inactive are the calls of the source.
EC50 by entry:
property_measured: EC50

compound: Cc1cc(C)n(C(=O)CNC(=O)Cc2ccccc2)n1
measured_value: > 195 µM (not active)
//
compound: COc1ccc(C)cc1NS(=O)(=O)c1ccc(-c2cnc(C3CC3)o2)cc1
measured_value: 0.43 µM (active)
//
compound: COc1ccccc1C(=O)NCCC(=O)NNC(=O)Cn1ccc(C(F)(F)F)n1
measured_value: > 195 µM (not active)
//
compound: CS(=O)(=O)c1nc(-c2ccccc2)cc(C(F)(F)F)n1
measured_value: 8.84 µM (inconclusive)
//
compound: CCC(C)C(NC(=O)C1CCC(=O)N1C(=O)OCc1ccccc1)C(=O)NC(C(=O)N1CCCC1C(N)=O)C(C)CC (stereo unspecified)
measured_value: > 195 µM (not active)
//
compound: O=C(O)CC1SC(=O)N(Cc2ccccc2)C1=O (stereo unspecified)
measured_value: > 195 µM (not active)
//
compound: NC(=O)COC(=O)c1ccccc1Oc1ccccc1
measured_value: > 195 µM (not active)
//
compound: COc1ccc(S(=O)(=O)NCC(c2cccnc2)N2CCN(C)CC2)cc1OC (stereo unspecified)
measured_value: > 195 µM (not active)
//
compound: O=C(CN1CC=C(c2ccccc2)CC1)NC(=O)NCc1ccccc1
measured_value: > 195 µM (not active)
//
compound: CCOc1ccc2c(c1)[N+](C)(C)C(C)(C)C=C2C
measured_value: > 195 µM (not active)
//
compound: CCCCn1c(SCC(=O)NCc2ccco2)nc2c(sc3ccccc32)c1=O
measured_value: > 195 µM (not active)

---

- target: UniProtKB P05177
- Sequence (P05177 whole entry): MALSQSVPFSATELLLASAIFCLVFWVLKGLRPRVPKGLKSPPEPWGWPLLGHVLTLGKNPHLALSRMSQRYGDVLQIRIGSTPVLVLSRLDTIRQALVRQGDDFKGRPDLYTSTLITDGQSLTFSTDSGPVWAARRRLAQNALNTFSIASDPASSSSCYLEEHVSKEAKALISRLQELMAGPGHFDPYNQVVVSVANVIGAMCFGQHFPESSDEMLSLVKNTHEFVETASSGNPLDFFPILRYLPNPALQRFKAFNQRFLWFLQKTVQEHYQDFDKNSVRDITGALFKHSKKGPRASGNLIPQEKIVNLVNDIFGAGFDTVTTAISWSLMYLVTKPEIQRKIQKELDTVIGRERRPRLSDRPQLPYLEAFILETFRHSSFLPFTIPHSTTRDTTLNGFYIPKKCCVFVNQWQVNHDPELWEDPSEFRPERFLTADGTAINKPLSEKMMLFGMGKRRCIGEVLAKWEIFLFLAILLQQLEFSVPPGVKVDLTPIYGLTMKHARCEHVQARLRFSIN
Measured AC50 by item

molecule: COc1ccc([N+](=O)[O-])cc1N(CC(O)CN(CC(C)C)CC(C)C)S(=O)(=O)c1ccccc1 (stereo not given)
AC50: 11.2 µM (inconclusive)
//
molecule: CCOc1cc(S(=O)(=O)N(Cc2ccccc2)Cc2ccccc2)c(OCC)cc1-n1cnnn1
AC50: 15.8 µM (inconclusive)
//
molecule: C[N+](C)(C)/N=C\c1ccc(O)c(O)c1
AC50: 10 µM (inconclusive)
//
molecule: CC(C)c1ccc(NC(=O)C(c2ccccc2)N2CCN(C=O)CC2)cc1 (stereo not given)
AC50: 31.6 µM (inconclusive)
//
molecule: CCOc1ccc(C(=O)Nc2cccc(-c3cc4ccccc4oc3=O)c2)cc1[N+](=O)[O-]
AC50: 5.62 µM (inconclusive)
//
molecule: NC(=O)c1ccc(-c2nc(-c3ccc4c(c3)OCO4)c(-c3ccccn3)[nH]2)cc1
AC50: 15.8 µM (inconclusive)
//
molecule: COc1ccc(-n2c(=O)c(-c3ccc(Cl)cc3)nc3cnc(N4CCNCC4)nc32)cc1
AC50: 12.6 µM (inconclusive)
//
molecule: CCCN(CCC)CCc1c[nH]c2ccc(C(N)=O)cc12
AC50: 15.8 µM (inconclusive)
//
molecule: CCc1ccc(CCN2CCCCC2)nc1
AC50: 5.01 µM (inconclusive)
//
molecule: O=C(NCc1ccco1)c1cc(C(=O)C2CC2)c[nH]1
AC50: 0.2 µM (inconclusive)

---

- target: Ubiquitin-conjugating enzyme E2 N (Homo sapiens, UniProt P61088);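 also: Dose-response confirmation in a TR-FRET assay detecting UBC13-driven polyubiquitin chain formation, inhibition measured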
- Sequence (P61088 whole entry): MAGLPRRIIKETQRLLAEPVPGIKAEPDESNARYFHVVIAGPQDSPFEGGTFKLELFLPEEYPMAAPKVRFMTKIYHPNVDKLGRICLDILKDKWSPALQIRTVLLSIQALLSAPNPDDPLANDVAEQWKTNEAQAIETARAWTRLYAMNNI
- Assay type: functional
Active and inactive are the calls of the source.
Classes used: active, inactive

compound: Cc1ccc(OCC(=O)NNC(=S)NC(=O)C2CC2)c(C)c1
assigned_category: active
//
compound: C/C(Cl)=C\Cn1c(O)c(/N=N/C(=N)S)c2ccccc21
assigned_category: inactive
//
compound: CC[C@H](C)Cc1cn([C@@H](CCCCN)C(=O)NCCCCCCCCCCC(=O)N2CCNCC2)nn1
assigned_category: inactive
//
compound: Cc1ccc(-c2nn(-c3ccccc3)cc2CSC(=N)N)cc1
assigned_category: inactive
//
compound: Cc1ccc(NC(=O)c2ccc(NCCN)c([N+](=O)[O-])c2)cc1Cl
assigned_category: inactive
//
compound: CC(C)n1cnc2c(N(C)c3ccccc3)nc(N(CCN(C)C)Cc3ccccc3)nc21
assigned_category: inactive
//
compound: COc1ccc(-c2oc3ncnc(N)c3c2-c2ccccc2)cc1
assigned_category: active
//
compound: CCCCCCCCCCCCCCCC[N+](C)(C)CCN(Cc1ccc(OC)cc1)c1ncccn1 [THONZONIUM BROMIDE]
assigned_category: active
//
compound: Cc1c(C(=O)Nc2ccc(S(=O)(=O)N(C)C3CCN(C)CC3)cc2)oc2ccccc12
assigned_category: inactive
//
compound: COc1ccc(C[C@H]2CN3C(=NC[C@@H]3Cc3ccccc3)N2CCNC(=O)c2ccc(C)c(Br)c2)cc1
assigned_category: inactive
//
compound: COc1ccc(/C=N/NC(=O)CSCc2ccc([N+](=O)[O-])cc2)cc1OC
assigned_category: inactive
//
compound: CN(C)CCCN(C(=O)c1ccc(S(=O)(=O)N2CCCC2)cc1)c1nc2ccc(Br)cc2s1
assigned_category: inactive

---

- target: Polyadenylate-binding protein 1 (Homo sapiens, UniProt P11940)
- Sequence (P11940 whole entry): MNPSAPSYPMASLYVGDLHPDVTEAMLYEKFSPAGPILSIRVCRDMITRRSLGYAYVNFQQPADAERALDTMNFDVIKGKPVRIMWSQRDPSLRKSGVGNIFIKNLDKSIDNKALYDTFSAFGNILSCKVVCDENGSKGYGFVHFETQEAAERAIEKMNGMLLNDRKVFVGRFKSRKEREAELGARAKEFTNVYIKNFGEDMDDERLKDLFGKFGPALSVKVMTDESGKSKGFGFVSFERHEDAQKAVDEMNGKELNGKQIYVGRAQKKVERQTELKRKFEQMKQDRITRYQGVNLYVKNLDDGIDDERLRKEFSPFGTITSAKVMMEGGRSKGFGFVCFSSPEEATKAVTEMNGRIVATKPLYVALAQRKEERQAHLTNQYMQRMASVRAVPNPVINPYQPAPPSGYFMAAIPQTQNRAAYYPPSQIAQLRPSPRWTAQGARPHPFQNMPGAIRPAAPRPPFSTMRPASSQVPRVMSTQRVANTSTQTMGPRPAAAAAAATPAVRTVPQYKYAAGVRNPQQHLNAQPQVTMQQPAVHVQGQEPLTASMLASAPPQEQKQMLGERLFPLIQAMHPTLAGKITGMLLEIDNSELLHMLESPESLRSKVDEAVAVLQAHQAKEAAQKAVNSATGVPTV
- test_description: PABP1 MLLE–PAM2 interaction inhibitors, dose response, miRNA deadenylation inhibitor project, biochemical, fluorescence polarization, Cy5-PAM2 peptide, secondary (AID 602260)
- Format: functional
- applied_conditions: read-out: IC50_Mean
The source made the active and inactive calls.
property_measured: IC50

compound: CCOC(=O)CSc1nc2c(c(=O)[nH]c(=O)n2C)n1C/C=C(/C)Cl
measured_value: > 66 µM (inactive)

compound: O=C1CC(SC(=S)C2CCCC2=O)C(=O)N1 (stereo not drawn)
measured_value: > 66 µM (inactive)

compound: CCOC(=O)c1c(N)sc2c1CCS(=O)(=O)C2
measured_value: > 66 µM (inactive)
